A collection of compounds and their measured IC50
# target-under-test: 15-PGDH (Homo sapiens (Human), UniProt P15428)
# Sequence (P15428 whole entry): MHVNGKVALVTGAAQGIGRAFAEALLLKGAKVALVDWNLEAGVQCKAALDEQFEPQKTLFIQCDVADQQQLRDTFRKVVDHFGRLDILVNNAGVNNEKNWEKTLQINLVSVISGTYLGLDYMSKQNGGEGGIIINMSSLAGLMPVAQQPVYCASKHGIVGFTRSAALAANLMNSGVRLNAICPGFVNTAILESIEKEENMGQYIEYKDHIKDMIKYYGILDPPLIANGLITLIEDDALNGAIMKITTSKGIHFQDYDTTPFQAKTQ

Use these answered entries as a reference point.
[
  {
    "compound": "Nc1c(C(=O)N2CCC(F)(F)CC2)sc2nc(-c3ccccc3)cnc12 [Example 49]",
    "result": "50 to 1000 nM"
  },
  {
    "compound": "COc1cncc(-c2cnc3c(N)c(C(=O)N4CCCCC4)sc3n2)c1 [Example 45]",
    "result": "0.5 to 3 nM"
  },
  {
    "compound": "Nc1c(C(=O)N2CCCCC2)sc2nc(-c3ccnc(C(F)(F)F)c3)cnc12 [Example 37]",
    "result": "3 to 10 nM"
  },
  {
    "compound": "Nc1c(C(=O)N2CCCCC2)sc2nc(-c3cnc4[nH]ncc4c3)cnc12 [Example 41]",
    "result": "3 to 10 nM"
  },
  {
    "compound": "CC1(C)CCN(C(=O)c2sc3nc(-c4ccccc4)cnc3c2N)CC1 [Example 56]",
    "result": "50 to 1000 nM"
  }
]

What reported IC50 corresponds to Nc1c(C(=O)N2CCCCC2)sc2nc(-c3ccc4nccn4c3)cnc12 [Example 15] on 15-PGDH (Homo sapiens (Human), UniProt P15428)?
0.5 to 3 nM

Fill in the recorded IC50 for this compound, with 15-PGDH (Homo sapiens (Human), UniProt P15428) as test system: Nc1c(C(=O)N2CCC3(CC2)CC3)sc2nc(-c3ccccc3)cnc12 [Example 57]
50 to 1000 nM

Test system 15-PGDH (Homo sapiens (Human), UniProt P15428); read-out IC50; what value for Nc1c(C(=O)N2CCCCCC2)sc2nc(-c3ccccc3)cnc12 [Example 4] ?
10 to 25 nM

Which measured IC50 belongs to Nc1c(C(=O)N2CCCCC2)sc2nc(-c3cnc(N4CCOCC4)nc3)cnc12 [Example 24] , tested on 15-PGDH (Homo sapiens (Human), UniProt P15428)?
< 0.5 nM

What is its IC50 for 15-PGDH (Homo sapiens (Human), UniProt P15428)? Entry: Nc1c(C(=O)N2CCSCC2)sc2nc(-c3ccccc3)cnc12 [Example 16]
10 to 25 nM

Can you look up IC50 on 15-PGDH (Homo sapiens (Human), UniProt P15428) for Cn1ccc(-c2cnc3c(N)c(C(=O)N4CCCCC4)sc3n2)cc1=O [Example 42] ?
0.5 to 3 nM

Requested read-out IC50, target or system 15-PGDH (Homo sapiens (Human), UniProt P15428), entry Nc1c(C(=O)N2CCCCC2)sc2nc(-c3ccc4nccnc4c3)cnc12 [Example 12]
0.5 to 3 nM

Hi! What's the reported IC50 for Nc1c(C(=O)N2CCCCC2)sc2nc(-c3ccncc3)cnc12 [Example 27] on 15-PGDH (Homo sapiens (Human), UniProt P15428)?
0.5 to 3 nM

* * *

Form: system (15-PGDH (Homo sapiens (Human), UniProt P15428)), quantity (IC50), values below.

[
  {
    "compound": "CC1CN(C(=O)c2sc3nc(-c4ccccc4)cnc3c2N)CC(C)O1 (centres unmarked)",
    "target-under-test": "15-PGDH (Homo sapiens (Human), UniProt P15428)",
    "measured-attribute": "IC50",
    "result": "50 to 1000 nM"
  }
]

Given the entry COc1ncc(-c2cnc3c(N)c(C(=O)N4CCCCC4)sc3n2)cn1 , what IC50 was observed with 15-PGDH (Homo sapiens (Human), UniProt P15428)?
< 0.5 nM

Item CN1CCN(C(=O)c2sc3nc(-c4ccccc4)cnc3c2N)CC1 with 15-PGDH (Homo sapiens (Human), UniProt P15428) - IC50?
50 to 1000 nM

Checklist item: IC50 tested on 15-PGDH (Homo sapiens (Human), UniProt P15428), entry Nc1cc(-c2cnc3c(N)c(C(=O)N4CCCCC4)sc3n2)ccn1 , value?
0.5 to 3 nM

State its IC50 on 15-PGDH (Homo sapiens (Human), UniProt P15428): Nc1c(C(=O)N2CCCCC2)sc2nc(-c3ccccc3)cnc12
3 to 10 nM

Give IC50 (15-PGDH (Homo sapiens (Human), UniProt P15428)) of the following compound: Nc1c(C(=O)N2CC3(COC3)C2)sc2nc(-c3ccccc3)cnc12
> 5000 nM

Observed IC50 on 15-PGDH (Homo sapiens (Human), UniProt P15428) for Nc1ncc(-c2cnc3c(N)c(C(=O)N4CCCCC4)sc3n2)cn1 , please.
< 0.5 nM

Find the measured IC50: item Cn1ncc2cc(-c3cnc4c(N)c(C(=O)N5CCCCC5)sc4n3)ccc21 , target or system 15-PGDH (Homo sapiens (Human), UniProt P15428).
3 to 10 nM

* * *

activity at 0.01 µM values by entry
# Tested on: A549 cells
# assay-summary: Assay of intracellular PGE2 up-regulatory activity
# Assay type: cell-based
# settings: Homo sapiens, IL-1β induced, 10 nM compound, 8 h, relative to positive control group, read-out: PGE2 upregulation rate at 10 nM compound concentration
Write the answer as a number in %, unit excluded.

[
  {
    "compound": "Nc1c(C(=O)N2CCCCC2)sc2nc(-c3ccc4ncsc4c3)cnc12",
    "unit-tag": "%",
    "activity at 0.01 µM": 254
  }
]

Field: next molecule
Endpoint output: activity at 0.01 µM of Nc1c(C(=O)N2CCCCC2)sc2nc(-c3ccc4ccccc4c3)cnc12 . Value?
208

* * *

Quick note: these are pIC50 numbers for system: 15-PGDH (Homo sapiens (Human))
pIC50: −log10 of the molar value.

Check out these entries, answers already filled in.
[
  {
    "compound": "COc1ccc(-c2cnc3c(N)c(C(=O)N4CCCCC4)sc3n2)cn1 [Example 20]",
    "pIC50": "8.52 to 9.30"
  },
  {
    "compound": "Cn1cc(-c2cnc3c(N)c(C(=O)N4CCCCC4)sc3n2)ccc1=O [Example 17]",
    "pIC50": "8.52 to 9.30"
  },
  {
    "compound": "Cn1cc(-c2cnc3c(N)c(C(=O)N4CCCCC4)sc3n2)cn1 [Example 48]",
    "pIC50": "7.60 to 8.00"
  },
  {
    "compound": "Cc1ccc(-c2cnc3c(N)c(C(=O)N4CCCCC4)sc3n2)cn1 [Example 36]",
    "pIC50": "8.52 to 9.30"
  }
]

Which pIC50 value belongs to Nc1c(C(=O)N2CCC(F)(F)C2)sc2nc(-c3ccccc3)cnc12 [Example 50] ?
6.00 to 7.30

Param item = Nc1c(C(=O)N2CCOCC2)sc2nc(-c3ccccc3)cnc12 [Example 51] ; retrieve measured pIC50.
6.00 to 7.30

* * *

Catalogue of activity at 0.01 µM readings, one per entry.
# System: A549 cells
# assay-summary: Assay of intracellular PGE2 up-regulatory activity
# Format: cell-based
# settings: Homo sapiens, IL-1β induced, 10 nM compound, 8 h, relative to positive control group, read-out: PGE2 upregulation rate at 10 nM compound concentration
State just the number; it will be interpreted in %.

[
  {
    "compound": "Nc1c(C(=O)N2CCCCC2)sc2nc(-c3cccnc3)cnc12",
    "numeric-value": 530
  },
  {
    "compound": "Nc1c(C(=O)N2CCCCC2)sc2nc(-c3cncs3)cnc12",
    "numeric-value": 479
  },
  {
    "compound": "Nc1c(C(=O)N2CCCCC2)sc2nc(-c3cncnc3)cnc12",
    "numeric-value": 412
  },
  {
    "compound": "N#Cc1ccc(-c2cnc3c(N)c(C(=O)N4CCCCC4)sc3n2)cn1",
    "numeric-value": 424
  },
  {
    "compound": "COc1cncc(-c2cnc3c(N)c(C(=O)N4CCCCC4)sc3n2)c1",
    "numeric-value": 177
  },
  {
    "compound": "Cn1ccc2cc(-c3cnc4c(N)c(C(=O)N5CCCCC5)sc4n3)ccc2c1=O",
    "numeric-value": 173
  },
  {
    "compound": "Nc1c(C(=O)N2CCCCC2)sc2nc(-c3cccs3)cnc12",
    "numeric-value": 451
  },
  {
    "compound": "Nc1c(C(=O)N2CCCCC2)sc2nc(-c3ccc4ncoc4c3)cnc12",
    "numeric-value": 200
  }
]

Sample Nc1c(C(=O)N2CCCCC2)sc2nc(-c3ccc4nc[nH]c4c3)cnc12 — what was its activity at 0.01 µM?
233

* * *

# Tested on: A549 cells
# assay-summary: Assay of intracellular PGE2 up-regulatory activity
# Type: cell-based
# settings: Homo sapiens, IL-1β induced, 10 nM compound, 8 h, relative to positive control group, read-out: PGE2 upregulation rate at 10 nM compound concentration
measured-attribute: activity at 0.01 µM (%)
Express the result in % but write the number alone.

Before answering, review these 4 worked examples.
[
  {
    "compound": "Nc1c(C(=O)N2CCCCC2)sc2nc(-c3ccc4ncccc4c3)cnc12 [Example 22]",
    "target-under-test": "A549 cells",
    "unit-tag": "%",
    "numeric-value": 282
  },
  {
    "compound": "Cc1noc(C)c1-c1cnc2c(N)c(C(=O)N3CCCCC3)sc2n1 [Example 11]",
    "target-under-test": "A549 cells",
    "unit-tag": "%",
    "numeric-value": 990
  },
  {
    "compound": "Nc1ncc(-c2cnc3c(N)c(C(=O)N4CCCCC4)sc3n2)cn1 [Example 33]",
    "target-under-test": "A549 cells",
    "unit-tag": "%",
    "numeric-value": 393
  },
  {
    "compound": "Cc1ccc(-c2cnc3c(N)c(C(=O)N4CCCCC4)sc3n2)cn1 [Example 36]",
    "target-under-test": "A549 cells",
    "unit-tag": "%",
    "numeric-value": 301
  }
]

Note: attention shifts to another entry.
Name the reported activity at 0.01 µM value associated with the compound Nc1c(C(=O)N2CCCCC2)sc2nc(-c3cncc4ccccc34)cnc12 [Example 26]
499
